test: Brain and plasma pharmacokinetics after single IP or PO dose; assay type: in vivo, mouse; details: male, CD-1, mouse, plasma, ip, 10 mg/kg
property: bioavailability
Please append the unit to your numeric answer.

Query C[C@@]1(O)CC[C@H]2[C@H](CC[C@@H]3[C@@H]2CC[C@]2(C)[C@@H](C(=O)Cn4cc(C#N)cn4)CC[C@@H]32)C1 yields bioavailability of 89%

---

biological target: human recombinant α6β3δ GABAA receptor (Homo sapiens, UniProt P28472+Q16445); assay: Two electrode voltage clamp, α6β3δ in Xenopus oocytes
Sequence (Q16445 20-453): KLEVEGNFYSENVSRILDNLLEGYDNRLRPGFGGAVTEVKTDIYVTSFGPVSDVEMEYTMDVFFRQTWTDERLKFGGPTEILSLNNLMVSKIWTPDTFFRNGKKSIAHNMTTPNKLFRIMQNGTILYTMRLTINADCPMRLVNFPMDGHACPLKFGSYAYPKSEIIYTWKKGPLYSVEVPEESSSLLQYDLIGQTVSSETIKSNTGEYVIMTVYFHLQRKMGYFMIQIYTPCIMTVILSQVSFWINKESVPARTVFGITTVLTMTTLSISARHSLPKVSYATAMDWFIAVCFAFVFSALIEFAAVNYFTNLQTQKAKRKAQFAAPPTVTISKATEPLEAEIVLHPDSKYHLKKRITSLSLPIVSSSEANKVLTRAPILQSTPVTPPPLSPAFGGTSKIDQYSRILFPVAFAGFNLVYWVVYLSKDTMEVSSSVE
Sequence (P28472 26-473): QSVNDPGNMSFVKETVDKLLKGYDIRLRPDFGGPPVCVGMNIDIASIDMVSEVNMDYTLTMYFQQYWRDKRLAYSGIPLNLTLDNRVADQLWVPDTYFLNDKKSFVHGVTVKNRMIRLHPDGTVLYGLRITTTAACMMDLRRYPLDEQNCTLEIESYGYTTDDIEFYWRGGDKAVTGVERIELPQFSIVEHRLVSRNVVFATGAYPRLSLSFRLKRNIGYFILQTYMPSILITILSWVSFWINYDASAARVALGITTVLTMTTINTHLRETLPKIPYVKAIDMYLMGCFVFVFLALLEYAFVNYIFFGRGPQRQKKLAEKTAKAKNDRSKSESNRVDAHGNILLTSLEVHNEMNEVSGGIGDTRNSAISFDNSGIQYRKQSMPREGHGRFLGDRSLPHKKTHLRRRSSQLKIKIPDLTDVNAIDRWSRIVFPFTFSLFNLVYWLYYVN
Sequence (O14764 17-452 partner limits assumed): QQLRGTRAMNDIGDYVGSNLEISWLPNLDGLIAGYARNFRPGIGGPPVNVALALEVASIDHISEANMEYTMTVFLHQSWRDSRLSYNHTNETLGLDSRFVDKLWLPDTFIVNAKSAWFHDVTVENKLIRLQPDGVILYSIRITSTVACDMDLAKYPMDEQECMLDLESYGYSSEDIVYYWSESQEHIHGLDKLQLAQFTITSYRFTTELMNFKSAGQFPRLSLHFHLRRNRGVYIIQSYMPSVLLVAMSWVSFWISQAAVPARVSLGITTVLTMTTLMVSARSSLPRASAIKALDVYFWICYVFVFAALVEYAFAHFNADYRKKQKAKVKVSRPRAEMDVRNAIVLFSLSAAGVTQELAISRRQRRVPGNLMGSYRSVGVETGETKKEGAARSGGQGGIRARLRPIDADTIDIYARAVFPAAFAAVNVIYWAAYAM
property: EC50 (nM)
A number alone suffices; assume nM.

Lookup result for C[C@@]1(O)CC[C@H]2[C@H](CC[C@@H]3[C@@H]2CC[C@]2(C)[C@@H](C(=O)Cn4cc(C#N)cn4)CC[C@@H]32)C1 [zuranolone] ; measured EC50: 780
